# viability relative to non-treated cells, 10 μM (%) values compiled below
- Tested on: T lymphocyte cell line Jurkat E6-1
- test-protocol: Cytotoxicity (CCK-8 viability)
- Format: cell-based
- condition-summary: 10 μM, 20 h culture
- Description: The cytotoxicities of the compounds of Examples 1-19 and Comparative Examples 1-3 to T lymphocyte cell line Jurkat E6-1 provided from the Korea Cell Line Bank were measured using a cell counting kit (CCK-8, Dojindo). […] The absorbance was measured at 450 nm (Reference: 650 nm) and was expressed in percent relative to the value […] from non-treated cells (viability 100%). […]
Field: numeric (%). Do not append units.

Recorded viability relative to non-treated cells, 10 μM (%), per entry:
C=CCCCCCCCCCNC(=O)c1ccccc1Br	98.8
CCCCCCCCCCNC(=O)c1ccccc1Br	91
CCCCCCCCCCCCNC(=O)c1ccccc1O	82
CC(C)=CCC/C(C)=C/CNC(=O)c1ccccc1Br	96.9
CCCCC(CC)CNC(=O)c1ccccc1F (stereo not shown)	94.7

# viability relative to non-treated cells, 10 μM (%) of CCCCCCNC(=O)c1ccccc1OC = 96

Entry CCCCC(CC)CNC(=O)c1ccccc1Br (stereo not shown) ; viability relative to non-treated cells, 10 μM (%) = 95.3

Input C=CCCCCCCCCCNC(=O)c1ccccc1F . Output viability relative to non-treated cells, 10 μM (%): 88.8

Given item CC(C)=CCC/C(C)=C/CNC(=O)c1ccccc1F , the value recorded as its viability relative to non-treated cells, 10 μM (%) is 89.3

Record CC(C)=CCC/C(C)=C/CC/C(C)=C/COC(=O)c1ccccc1Br . Reported viability relative to non-treated cells, 10 μM (%): 73.6

----------
- System: T lymphocyte cell line Jurkat E6-1
- test-protocol: Cytotoxicity (CCK-8 viability)
- Assay type: cell-based
- condition-summary: 30 μM, 20 h culture
Each record is given criterion met if its reported viability relative to non-treated cells, 30 μM (%) is strictly below 80%. Records at or above 80% are given criterion not met.

A selection of reference data follows.
CC(C)=CCC/C(C)=C/CNC(=O)c1ccccc1F [Example 16]	criterion met
CCCCCCNC(=O)c1ccccc1OC [Example 4]	criterion not met
C=CCCCCCCCCCNC(=O)c1ccccc1Br [Example 13]	criterion not met
CCCCCCCCCCCCNC(=O)c1ccccc1O [Example 7]	criterion met

Prompt line: Please determine if CCCCC(CC)CNC(=O)c1ccccc1Br (stereo not shown) [Example 9] is below 80% in terms of viability relative to non-treated cells, 30 μM (%).
Response line: criterion not met

Prompt line: Given C=CCCCCCCCCCNC(=O)c1ccccc1F [Example 15] , is recorded viability relative to non-treated cells, 30 μM (%) strictly lower than 80%?
Response line: criterion not met

Prompt line: Threshold test, viability relative to non-treated cells, 30 μM (%) < 80%: CC(C)=CCC/C(C)=C/CNC(=O)c1ccccc1Br [Example 14]
Response line: criterion not met

Prompt line: Strictly below 80%: is that where viability relative to non-treated cells, 30 μM (%) of CC(C)=CCC/C(C)=C/CC/C(C)=C/COC(=O)c1ccccc1Br [Example 17] sits?
Response line: criterion met

Prompt line: Below 80% on viability relative to non-treated cells, 30 μM (%)? Entry CCCCC(CC)CNC(=O)c1ccccc1F (stereo not shown) [Example 8]
Response line: criterion not met
